pKi: −log10 of the molar value.
Heads up, these compounds all have pKi values measured for Sodium-dependent dopamine transporter (Homo sapiens).
Value kind: pKi

Worked cases, pKi given:
>>> df
                                   molecule                              assay_system  reported_measurement
0  O=C(NCCCCCC(c1ccc(F)cc1)c1ccc(F)cc1)Nc1ccc(Cl)c(C(F)(F)F)c1  Sodium-dependent dopamine transporter (Homo sapiens)                  6.40
1  Cc1cc(Cl)ccc1NC(=O)NCCCCC(c1ccc(F)cc1)c1ccc(F)cc1  Sodium-dependent dopamine transporter (Homo sapiens)                  6.93

P: CC(=O)Nc1cc(NC(=O)NCCCCC(c2ccc(F)cc2)c2ccc(F)cc2)ccc1Cl
Q: O=C(NCCCC(c1ccc(F)cc1)c1ccc(F)cc1)Nc1ccc(Cl)c(C(F)(F)F)c1
Enquiry: Lab note: check whether P or Q shows the higher recorded pKi. Kindly state the label of the option you pick.
Return: Q
(Q: 6.85, P: 6.22)
